- System: L6
- ASSAY_EXPLANATION: Cytotoxicity against rat L6 cells assessed as reduction in cell viability incubated for 70 hrs by resazurin staining based inverted microscopic analysis
- CONDITION_INFO: L6, 70 h
READOUT_TYPE: IC50 (µM)
Quick reminder: number only, in µM, skip the unit.

Worked cases, answers included:
- COMPOUND: "COc1ccc([C@H]2Oc3ccc(/C=C/C(=O)OC(C)(C)C)cc3[C@@H]2C)cc1 (racemic)"
  TARGET_OR_TEST_SYSTEM: "L6"
  RECORDED_MEASUREMENT: 40.1
- COMPOUND: "COc1cc([C@H]2Oc3c(OC)cc(/C=C/C(=O)OC(C)C)cc3[C@@H]2C(=O)OC(C)C)ccc1O (racemic)"
  TARGET_OR_TEST_SYSTEM: "L6"
  RECORDED_MEASUREMENT: 10.3

[in] Which IC50 value is on record for OC[C@H]1c2cc(Br)ccc2O[C@@H]1c1ccc(O)cc1 (racemic) ?
[out] 22

[in] Which IC50 value is on record for CC(C)(C)OC(=O)/C=C/c1cc(F)c2c(c1)[C@H](C(=O)OC(C)(C)C)[C@@H](c1ccc(O)c(F)c1)O2 (racemic) ?
[out] 9.22

[in] Which IC50 value is on record for CCCCOC(=O)/C=C/c1ccc2c(c1)[C@H](C(=O)OCCCC)[C@@H](c1ccc(O)cc1)O2 (racemic) ?
[out] 14.3

[in] Which IC50 value is on record for COc1cc([C@H]2Oc3ccc(Br)cc3[C@@H]2C)c(Br)cc1O (racemic) ?
[out] 18.2

[in] Which IC50 value is on record for OC[C@H]1c2ccccc2O[C@@H]1c1ccc(O)c(Br)c1 (racemic) ?
[out] 115

[in] Which IC50 value is on record for CC(C)(C)OC(=O)/C=C/c1ccc2c(c1)[C@H](C(=O)OC(C)(C)C)[C@@H](c1ccc(OC(C)(C)C)cc1)O2 (racemic) ?
[out] 202

[in] Which IC50 value is on record for COc1cc([C@H]2Oc3ccc(Br)cc3[C@@H]2C)cc(Br)c1O (racemic) ?
[out] 44.8

[in] Which IC50 value is on record for CC(C)CC(=O)/C=C/c1cc(O)c2c(c1)[C@H](C(=O)CC(C)C)[C@@H](c1ccc(O)c(O)c1)O2 (racemic) ?
[out] 5

[in] Which IC50 value is on record for COc1ccc([C@H]2Oc3ccccc3[C@@H]2CO)cc1 (racemic) ?
[out] 43.6

[in] Which IC50 value is on record for COc1cc([C@H]2Oc3ccc(Br)cc3[C@@H]2CO)ccc1O (racemic) ?
[out] 32.3

[in] Which IC50 value is on record for COc1ccc([C@H]2Oc3ccc(Br)cc3[C@@H]2C)cc1Br (racemic) ?
[out] 39.7

[in] Which IC50 value is on record for C[C@H]1c2cc(/C=C/C(=O)O)ccc2O[C@@H]1c1ccc(O)cc1 (racemic) ?
[out] 73.9
